- system-name: HLA-A*02:01 (Homo sapiens, UniProt P04439, D140Y/D185E/D98H/E176V/E277Q/G131W/G231S/I119V/I121R/I166T/I218V/L300P/L318F/N151K/N90K/P208A/P217A/Q86G/Q94H/R138H/R169H/T345S)
- method: REVEAL Epitope Discovery System in vitro MHC-peptide binding score
- run-parameters: REVEAL score, positive control peptide set at 100%; greater than 50 = good or high affinity binding
Entry flag: TRUE if A*02:01 In Vitro Score reaches 6; FALSE if it does not.

IIFWVARGR [9-mer variant junction peptide, K28A] = TRUE
IFWVKRGNK [9-mer variant junction peptide, R31N] = FALSE
IFWVKRGSK [9-mer variant junction peptide, R31S] = FALSE
FIIFWVHRG [9-mer variant junction peptide, K28H] = TRUE
IIFWVKRGN [9-mer variant junction peptide, R31N] = TRUE
WVARGRKKL [9-mer variant junction peptide, K28A] = TRUE
WVKRGSKKL [9-mer variant junction peptide, R31S] = FALSE
WVKRGNKKL [9-mer variant junction peptide, R31N] = FALSE
VAFIIFWVS [9-mer variant junction peptide, K28S] = TRUE

====

Items are presented alongside their recorded A*03:01 In Vitro.
- system-name: HLA-A*03:01 (Homo sapiens)
- method: REVEAL Epitope Discovery System in vitro MHC-peptide binding score
- run-parameters: positive control peptide set at 100%, greater than 50 = good or high affinity binding
parameter: A*03:01 In Vitro

IFWVQRGAK [9-mer variant junction peptide, K28Q/R31A] = 17.00
AFIIFWVAR [9-mer variant junction peptide, K28A] = 0.50
IFWVKRGLK [9-mer variant junction peptide, R31L] = 26.90
IIFWVKRGN [9-mer variant junction peptide, R31N] = 4.30
IFWVARGRK [9-mer variant junction peptide, K28A] = 53.70
IIFWVLRGR [9-mer variant junction peptide, K28L] = 2.80
WVKRGSKKL [9-mer variant junction peptide, R31S] = 1.90
IIFWVKRGA [9-mer variant junction peptide, R31A] = 42.90
IFWVKRGHK [9-mer variant junction peptide, R31H] = 9.00
IIFWVKRGS [9-mer variant junction peptide, R31S] = 16.20
VAFIIFWVS [9-mer variant junction peptide, K28S] = 0.70
IIFWVQRGR [9-mer variant junction peptide, K28Q] = 18.00
WVQRGRKKL [9-mer variant junction peptide, K28Q] = 4.90
AFIIFWVSR [9-mer variant junction peptide, K28S] = 0.30
IFWVKRGNK [9-mer variant junction peptide, R31N] = 8.00

====

- system-name: HLA-B*08:01 (Homo sapiens, UniProt P01889, A93T/A95T/D138N/E176V/E187T/K202T/Q94N/R180D/S35A/V36M/Y33D/Y91F)
- method: REVEAL Epitope Discovery System in vitro MHC-peptide binding score
- Design: key: % binding, normalized to positive control peptide set at 100%
- run-parameters: binding normalized to positive control peptide set at 100%, greater than 50 considered good or high affinity binding
Please use the following B*08:01 In Vitro Score ranges when assigning a class: low bracket (below 0.2), middle bracket (0.2 to below 0.4), high bracket (0.4 or more)

IIFWVKRGA [9-mer variant junction peptide, R31A] = high bracket
IFWVKRGHK [9-mer variant junction peptide, R31H] = high bracket
WVQRGRKKL [9-mer variant junction peptide, K28Q] = high bracket
IFWVKRGNK [9-mer variant junction peptide, R31N] = low bracket
VAFIIFWVS [9-mer variant junction peptide, K28S] = low bracket
FWVKRGLKK [9-mer variant junction peptide, R31L] = high bracket
IIFWVQRGR [9-mer variant junction peptide, K28Q] = low bracket
IIFWVKRGN [9-mer variant junction peptide, R31N] = high bracket
IIFWVSRGR [9-mer variant junction peptide, K28S] = low bracket
VAFIIFWVK [9-mer of CD28/4-1BB junction region, mutation none] = middle bracket
AFIIFWVSR [9-mer variant junction peptide, K28S] = middle bracket

Entry source: patent US12139526B2
